CONDITION_SET: 303.15 K; 101 kPa; Liquid
MEASURED_PARAMETER: mass density (kg/m3)
Could you give me the number in kg/m3? Just the number is fine.

COMPOUND	mass density, kg/m3
CC(C)O	776.6
CCCC(C)O (configuration not stated)	800.9
CCCO	795.55
CC1CCCC1	737.21

Qu. Looking for the measured mass density of CCCCO , can you help?
Ans. 801.8

Qu. // repeat for CCC(C)O (configuration not stated) and report
Ans. 798.51

Qu. What about CCO ?
Ans. 781.15

====

CONDITION_SET: 298.15 K; 101 kPa; Liquid
Response field label: string, one of t (viscosity strictly below 3 mPa·s) or f.

Consider the worked cases shown below.
COMPOUND	QUALITATIVE_LABEL
CCCCO [butan-1-ol]	t
CC(C)O [propan-2-ol]	t
CCCC(C)O (configuration not stated) [pentan-2-ol]	f
CCCO [propan-1-ol]	t

Qu. Report whether reported viscosity is lower than 3 mPa·s (strictly) for CC1CCCC1 [methylcyclopentane]
Ans. t

Qu. Same read-out for CCO [ethanol] ?
Ans. t
